- Measurement protocol: yeast display, Sf9 membrane polyspecificity reagent, FACS + sequencing; frameworks hold sequencing errors
Observable: polyreactivity (PSR sort gate)

Below: 4 sequences and their reported polyreactivity (PSR sort gate).
polymer_sequence=QVQLVESGGGLVQAGGSLRLSCAASGSTFSGYAMGWYRQAPGKARELVAAISWRGVRTYYADSVKGRFTISRDNAKNTVYLQMNSLKPEDTAVSYCAAVRYITKEFSWGQGTQVTVSW test_result="high polyreactivity"
polymer_sequence=QVQLEESGGGLVQAGGSLRLSCASYGSTFTYNAMGLYIQAPAKERELVAVIRPGGTTNYADSVKGRFTISRDNAKNSVYLQMNSLKPVDTAVYYCAADVRRYDGYDYWGQGTQVTVSS test_result="low polyreactivity"
polymer_sequence=QVQLVESGGGLVQAGGSLRLSCAASGSIFGVNAMGWYRQAPGKERELVATITWRTGSTYYADSVKGRFTISRDNAKNTVYLQMNSLKPEDTAVYYCAAEDYTEFDYWGQGTQVTVSS test_result="low polyreactivity"
polymer_sequence=QVQLVESGGGLVQAGGSLRLSCAASGFTFFVYAMGWYRQAPGKERELVAVITSGGTTNYADSVKGRFTISRDNAKNTVYLQMNSLKPEDTAVYYCATDNGGIPKYVPYDFWGQGTQVTVSS test_result="high polyreactivity"

query: Which polyreactivity (PSR sort gate) reading was recorded for the sequence QVQIVESGGGLVQAGGSLRLSCAASGSISVANAMGWYRQAPGKERELVAAITDSGDDTYYADSVKGRFTISRDNAKNTVYFQMNSLKPEDTELYYCAVEAWSVPPYDYWGQGTQVTVSS ?
result: low polyreactivity
